- measurementTarget: Mitogen-activated protein kinase 14 (Homo sapiens)
- experimentNotes: Inhibition of MAPK p38alpha
quantityKind: pIC50
pIC50 is defined as minus the log10 of a concentration measured in mol/L.

Study these solved cases before continuing.
1. Nc1nc(Nc2ccccc2)sc1C(=O)c1ccccc1 6.14
2. Cc1cccc(-c2nc(Nc3ccc(C(=O)O)cc3)c3ccccc3n2)c1 4.69

Continue with the next compound.
Query: Query pIC50 for Cn1cc(/C=C2/C(=O)NC(=O)N(CCc3ccccc3)C2=O)c2ccccc21
Reply: 4.77

====

- measurementTarget: Mitogen-activated protein kinase 14 (Homo sapiens, UniProt Q16539)
- Sequence (Q16539 whole entry): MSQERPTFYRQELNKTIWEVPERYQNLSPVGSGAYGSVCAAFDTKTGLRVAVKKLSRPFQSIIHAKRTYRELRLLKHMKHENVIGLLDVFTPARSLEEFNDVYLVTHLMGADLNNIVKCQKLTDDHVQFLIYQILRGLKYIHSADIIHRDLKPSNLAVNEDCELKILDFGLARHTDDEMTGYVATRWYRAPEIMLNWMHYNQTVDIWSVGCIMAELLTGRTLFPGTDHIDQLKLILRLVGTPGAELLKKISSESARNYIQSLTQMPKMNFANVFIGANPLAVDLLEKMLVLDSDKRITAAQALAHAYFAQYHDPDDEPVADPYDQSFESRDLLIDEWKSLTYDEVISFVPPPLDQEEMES
- experimentNotes: Inhibition of MAPK p38alpha assessed as activity remaining at 50 uM relative to control
quantityKind: Activity (%)
Could you give me the number in %? Just the number is fine.

Query: # lookup: Mitogen-activated protein kinase 14 (Homo sapiens, UniProt Q16539) Activity, key = Cn1cc(/C=C2/C(=O)NC(=O)N(CCc3ccccc3)C2=O)c2ccccc21
Reply: 32

====

Parameter: pIC50. Scope: all listed entries.
- measurementTarget: Mitogen-activated protein kinase 14 (Homo sapiens)
- experimentNotes: Inhibition of MAPK p38alpha
pIC50: −log10 of the molar value.

1) CCn1cc(/C=C2/Oc3c(ccc(O)c3CN3CCOCC3)C2=O)c2ccccc21 < 4.52
2) O=C1c2ccccc2C(=O)N1CCc1nc2c3c(-c4ccco4)c(-c4ccco4)oc3ncn2n1 < 4.52

Turning now to a further molecule:
Query: Let me know recorded pIC50 for NC(=O)c1ccc(Nc2nnc(-c3ccc(O)cc3)c3ccccc23)cc1 , thanks.
Reply: < 4.52

====

- measurementTarget: Mitogen-activated protein kinase 14 (Homo sapiens, UniProt Q16539)
- experimentNotes: Inhibition of MAPK p38alpha assessed as activity remaining at 50 uM relative to control
Items are presented alongside their recorded Activity.
State just the number; it will be interpreted in %.

Here is how some compounds turned out for Activity.
1. Nc1nc(Nc2ccccc2)sc1C(=O)c1ccccc1 8.1
2. CCn1cc(/C=C2/Oc3c(ccc(O)c3CN3CCOCC3)C2=O)c2ccccc21 37
3. NC(=O)c1ccc(Nc2nnc(-c3ccc(O)cc3)c3ccccc23)cc1 41
4. Cc1cccc(-c2nc(Nc3ccc(C(=O)O)cc3)c3ccccc3n2)c1 34

We now examine a further compound.
Query: Read off the recorded Activity for O=C1c2ccccc2C(=O)N1CCc1nc2c3c(-c4ccco4)c(-c4ccco4)oc3ncn2n1
Reply: 39
